B1: EEHEE_rd4_0363 (parent)
chain: VTVDIKGMEYHFDNPEEAKKFAERMAKELGGELKVENGTLKVE

- Variants of: B1
- assay text: folding stability dG (cDNA display proteolysis); higher = more stable
- condition notes: PBS, room temperature
Output yes (1) for folding stability dG not less than 5 kJ/mol; output no (0) otherwise.

These recorded examples may help you get a feel for the data.
mutant designation | category label
E32K | yes (1)
V3Q | no (0)
P15S | yes (1)
N14Q | no (0)
V1S | yes (1)
V1I | yes (1)
N14R | no (0)
T39G | yes (1)

Hello, I need to know if `A26R` has measured folding stability dG not below 5 kJ/mol. Thanks!
yes (1)

Same question for `E28A` please.
yes (1)

Same question for `V35P` please.
no (0)

Same question for `A26F` please.
no (0)

Same question for `V42S` please.
no (0)

Same question for `V42P` please.
no (0)
